Target: T1, active human C1s purified from human serum (CompTech, Tyler, TX, catalog number A104) (human, UniProt P09871 16-437; P09871 438-688)
T1 construct: Serum-derived material, biotinylated for the ELISA; also called human active C1s; active C1s
T1 sequence 1: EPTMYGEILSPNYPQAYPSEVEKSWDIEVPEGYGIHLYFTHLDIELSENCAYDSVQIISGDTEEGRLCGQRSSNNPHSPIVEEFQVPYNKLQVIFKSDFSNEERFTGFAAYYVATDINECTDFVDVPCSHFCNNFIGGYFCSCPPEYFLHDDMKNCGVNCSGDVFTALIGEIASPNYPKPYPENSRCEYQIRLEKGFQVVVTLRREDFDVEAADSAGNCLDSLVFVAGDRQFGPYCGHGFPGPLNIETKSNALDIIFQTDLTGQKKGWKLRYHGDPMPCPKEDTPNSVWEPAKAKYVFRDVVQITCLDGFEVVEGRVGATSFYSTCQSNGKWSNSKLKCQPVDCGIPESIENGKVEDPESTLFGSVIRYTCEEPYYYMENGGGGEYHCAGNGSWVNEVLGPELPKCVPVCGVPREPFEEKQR
T1 sequence 2: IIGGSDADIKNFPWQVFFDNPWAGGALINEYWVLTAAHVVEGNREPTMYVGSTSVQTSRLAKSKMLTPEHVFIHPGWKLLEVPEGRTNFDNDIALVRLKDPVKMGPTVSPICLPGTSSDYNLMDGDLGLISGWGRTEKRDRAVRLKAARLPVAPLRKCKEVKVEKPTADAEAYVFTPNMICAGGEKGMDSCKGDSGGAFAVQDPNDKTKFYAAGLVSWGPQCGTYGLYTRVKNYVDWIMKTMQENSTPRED
Assay: SPR, antibody captured via anti-human Fc, C1s in solution
Listing of recorded pKd by entry.
pKd here: minus log base 10 of the concentration, concentration in moles per litre.

{"columns": ["binder", "pKd"],
 "data": [
  ["MAB22 (antibody, V domains shown, IgG) VH: EVQLVESGGGVVRPGGSLRLSCAASGFTFDDYGMSWVRQAPGKGLEWVSGINWEGGSTGYADSVKGRFTISRDNAKNSLYLQMNSLRAEDTALYYCARDEQLGGKYYYYYYMDVWGKGTTVTVSS VL: DIQMTQSPSSLSASVGDRVTITCRASQGIRNDLGWYQQKPGKAPKRLIYTASNLQSGVPSRFSGSGSGTEFTLTISSLQPEDFATYYCLQYRSHPLTFGGGTKVEIK", 8.38],
  ["MAB30 (antibody, V domains shown, IgG) VH: EVQLVESGGGVVRPGGSLRLSCAASGFTFDDYGMSWVRQAPGKGLEWVSGINWEGGSTGYADSVKGRFTISRDNAKNSLYLQMNSLRAEDTALYYCARDEQLGGRHYYYYYMDVWGKGTTVTVSS VL: DIQMTQSPSSLSASVGDRVTITCRASQGIRNDLGWYQQKPGKAPKRLIYTASNLQSGVPSRFSGSGSGTEFTLTISSLQPEDFATYYCLQYNAYPLIFGGGTKVEIK", 8.22]
]}

// query pKd value for entry MAB1 (antibody, V domains shown, 191g-derived clone expressed as IgG in 293 cells) VH: QVQLVESGGGLVKPGGSLRLSCAASGFTFSDYYMSWIRQAPGKGLEWVSYISRSGSTKYYADSVKGRFTISRDNAKNSLYLQMNSLRAEDTAVYYCARDQEDYALDYWGQGTLVTVSS VL: DIQMTQSPSSLSASVGDRVTITCQASQDISNYLNWYQQKPGKAPKLLIYDASNLETGVPSRFSGSGSGTDFTFTISSLQPEDIATYYCEQYEDYPLTFGGGTKVEIK
9.02
